Reference for the values: patent US11415579B2

- SYSTEM_TESTED: Cdk2(T182C) (C177A) (Homo sapiens, UniProt P24941, C177A/T182C)
- Construct: poly-histidine; made in house; host or cells: E. coli
- ASSAY_REMARKS: Kinetic thiol consumption assay with Cdk2 mutant T182C
- Assay type: binding
- Design: key: rate constant with Cdk2 ÷ rate constant with model thiol (fold)
- PROTOCOL_CONDITIONS: Cdk2 T182C, additional mutation C177A
Here, each record is paired with measured Rate enhancement, Cdk2 T182C data.
Form: value (number only, do not type unit).

Sample answers from the record:
COMPOUND: C=CC(=O)Nc1sc2c(c1C(=O)NC1CC1)CCC2
Rate enhancement, Cdk2 T182C: 2.615

COMPOUND: C=CC(=O)NCc1ccccc1
Rate enhancement, Cdk2 T182C: 21.57

COMPOUND: C=CC(=O)NC1(c2noc(C)n2)CCCCCC1
Rate enhancement, Cdk2 T182C: 6.607

COMPOUND: C=CC(=O)N(C)C1CC(OCC)C12CCC2 (stereo not drawn)
Rate enhancement, Cdk2 T182C: 2.645

COMPOUND: C=CC(=O)NCCN1CCOCC1
Rate enhancement, Cdk2 T182C: 0.1853

Rate enhancement, Cdk2 T182C in this record for C=CC(=O)N1CCC2(CCCCCC2)C1 : 4.072

Rate enhancement, Cdk2 T182C in this record for C=CC(=O)N(Cc1ccco1)Cc1ccco1 : 2.038

Rate enhancement, Cdk2 T182C in this record for C=CC(=O)N1CCc2sccc2C1c1cccs1 (stereo not drawn) : 18.35

Rate enhancement, Cdk2 T182C in this record for C=CC(=O)N1CCCCCC1c1cccs1 (stereo not drawn) : 9.081

Rate enhancement, Cdk2 T182C in this record for C=CC(=O)N1CCC2CCC(C1)N2C (stereo not drawn) : 2.359

Rate enhancement, Cdk2 T182C in this record for C=CC(=O)N1CCCN(Cc2noc(C3CC3)n2)CC1 : 0.8366

Rate enhancement, Cdk2 T182C in this record for FC(F)(F)c1cc(Cl)ncc1Br : 0.1321
